Cited source for all entries: patent US20110118131A1

Answer each item with its documented fold difference in affinity against the original.
Experimental system: T1, IL-1β (UniProt P01584 117-269)
T1 construct: Antigen of XPA23
Assay text: Biacore, Fab periplasmic extract
Returns: string containing the number followed by the unit.

Answered examples (4):
Binder: XPA23 heavy chain S52A (Fab, V domains shown, Fab, periplasmic extract; also called C5A S52A) VH: EVQLLESGGGLVQPGGSLRLSCAASGFTFSKYFMFWVRQAPGKGLEWVSVIAPSGGMTRYADSVKGRFTISRDNSKNTLYLQMNSLRAEDTAVYYCARVGYGGNSDYWGQGTLVTVSS VL: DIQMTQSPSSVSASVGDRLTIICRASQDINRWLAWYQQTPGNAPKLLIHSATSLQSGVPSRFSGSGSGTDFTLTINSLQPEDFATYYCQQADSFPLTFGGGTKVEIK
Readout value: 0.05 fold
--
Binder: XPA23 heavy chain G56L (Fab, V domains shown, Fab, periplasmic extract; also called C5A G56L) VH: EVQLLESGGGLVQPGGSLRLSCAASGFTFSKYFMFWVRQAPGKGLEWVSVISPSGLMTRYADSVKGRFTISRDNSKNTLYLQMNSLRAEDTAVYYCARVGYGGNSDYWGQGTLVTVSS VL: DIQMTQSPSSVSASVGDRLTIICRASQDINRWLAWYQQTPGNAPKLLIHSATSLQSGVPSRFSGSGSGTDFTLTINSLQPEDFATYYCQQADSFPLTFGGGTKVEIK
Readout value: 1.41 fold
--
Binder: XPA23 heavy chain S105G (Fab, V domains shown, Fab, periplasmic extract; also called C5A S105G) VH: EVQLLESGGGLVQPGGSLRLSCAASGFTFSKYFMFWVRQAPGKGLEWVSVISPSGGMTRYADSVKGRFTISRDNSKNTLYLQMNSLRAEDTAVYYCARVGYGGNGDYWGQGTLVTVSS VL: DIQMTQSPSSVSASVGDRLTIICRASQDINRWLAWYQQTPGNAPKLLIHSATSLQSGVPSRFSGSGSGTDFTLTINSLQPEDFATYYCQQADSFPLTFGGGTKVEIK
Readout value: 0.12 fold
--
Binder: XPA23 heavy chain T58A (Fab, V domains shown, Fab, periplasmic extract; also called C5A T58A) VH: EVQLLESGGGLVQPGGSLRLSCAASGFTFSKYFMFWVRQAPGKGLEWVSVISPSGGMARYADSVKGRFTISRDNSKNTLYLQMNSLRAEDTAVYYCARVGYGGNSDYWGQGTLVTVSS VL: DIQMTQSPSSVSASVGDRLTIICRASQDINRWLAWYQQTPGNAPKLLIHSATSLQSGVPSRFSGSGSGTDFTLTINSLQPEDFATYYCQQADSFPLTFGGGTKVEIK
Readout value: 0.14 fold

Here is the next item to consider.
Exercise: Record request: fold difference in affinity against the original value, item XPA23 heavy chain M57L (Fab, V domains shown, Fab, periplasmic extract; also called C5A M57L) VH: EVQLLESGGGLVQPGGSLRLSCAASGFTFSKYFMFWVRQAPGKGLEWVSVISPSGGLTRYADSVKGRFTISRDNSKNTLYLQMNSLRAEDTAVYYCARVGYGGNSDYWGQGTLVTVSS VL: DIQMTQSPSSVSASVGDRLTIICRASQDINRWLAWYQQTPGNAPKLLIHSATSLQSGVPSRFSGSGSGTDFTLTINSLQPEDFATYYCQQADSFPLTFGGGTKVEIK
Key: 0.06 fold
